Tested on: human Factor 7 mRNA
Test: Antisense inhibition of human Factor 7 mRNA in HepB3 cells, 50 nM antisense oligonucleotide, lipofectin
Type: cell-based
Conditions: lipofectin, 50 nM antisense oligonucleotide, approximately 24 hours, Factor 7 mRNA by real-time RT-PCR (RTS 2927), relative to untreated control
Strand notation (5' to 3'): a small letter for the sugar, then the base; units joined by * are phosphorothioate-linked, units joined directly phosphodiester-linked; [ ] holds rarer units or linkages, { } end groups; capitals alone tell only the bases. e = 2'-O-(2-methoxyethyl) (MOE); [5mC] = 5-methylcytosine; d = 2'-deoxy (DNA)
result-type: % Inhibition
Please answer using a numeric value trailed by its unit.

>  <substance>
416435 (antisense e[5mC]*e[5mC]*e[5mC]*eA*eT*d[5mC]*dA*d[5mC]*dT*dG*dT*dA*dA*dG*dA*eA*eA*eT*e[5mC]*e[5mC]) [compound 416435]

>  <% Inhibition>
3%

$$$$
>  <substance>
416517 (antisense eG*eG*eG*eT*eG*d[5mC]*dA*dG*dT*dA*dG*d[5mC]*dA*dG*dA*eT*eG*e[5mC]*eA*eA) [compound 416517]

>  <% Inhibition>
23%

$$$$
>  <substance>
416565 (antisense e[5mC]*eA*eG*eG*eA*dT*dG*d[5mC]*dT*d[5mC]*dA*dT*dG*dG*d[5mC]*eA*eG*eA*e[5mC]*eA) [compound 416565]

>  <% Inhibition>
0%

$$$$

What value of % Inhibition on human Factor 7 mRNA does 416464 (antisense eA*eA*e[5mC]*eA*eT*dG*dT*dA*d[5mC]*dT*d[5mC]*d[5mC]*dG*dT*dG*eA*eT*eA*eT*eT) [compound 416464] have?
53%

% Inhibition of 407606 (antisense e[5mC]*eT*eG*eG*eT*d[5mC]*d[5mC]*dT*dT*dG*d[5mC]*dA*dG*dG*dA*eG*e[5mC]*e[5mC]*e[5mC]*e[5mC]) [compound 407606] on human Factor 7 mRNA?
57%

---

System: human Factor 7 mRNA
Test: Antisense inhibition of human Factor 7 mRNA in HepB3 cells, 50 nM antisense oligonucleotide, lipofectin
Format: cell-based
Conditions: gapmers targeted to nucleobases 4868 to 4899 of SEQ ID NO: 1, Table 8
Strand notation (5' to 3'): a small letter for the sugar, then the base; units joined by * are phosphorothioate-linked, units joined directly phosphodiester-linked; [ ] holds rarer units or linkages, { } end groups; capitals alone tell only the bases. e = 2'-O-(2-methoxyethyl) (MOE); [5mC] = 5-methylcytosine; d = 2'-deoxy (DNA)
# % Inhibition of human Factor 7 mRNA levels listing for each entry below
Report the figure in % without appending any unit label.

Recorded % Inhibition of human Factor 7 mRNA levels, per entry:
>  <substance>
422218 (antisense e[5mC]*eG*eA*dG*dT*dT*d[5mC]*dT*dG*d[5mC]*dA*dG*dG*dA*dG*d[5mC]*dG*eG*e[5mC]*e[5mC]) [compound 422218]

>  <reported-value>
70

$$$$
>  <substance>
422296 (antisense e[5mC]*e[5mC]*dG*dA*dG*dT*dT*d[5mC]*dT*dG*d[5mC]*dA*dG*dG*dA*eG*e[5mC]*eG*eG*e[5mC]) [compound 422296]

>  <reported-value>
74

$$$$
>  <substance>
422300 (antisense eG*eA*dG*d[5mC]*d[5mC]*d[5mC]*dG*dA*dG*dT*dT*d[5mC]*dT*dG*d[5mC]*eA*eG*eG*eA*eG) [compound 422300]

>  <reported-value>
65

$$$$

Need % Inhibition of human Factor 7 mRNA levels, item 422147 (antisense eG*eA*eG*e[5mC]*e[5mC]*d[5mC]*dG*dA*dG*dT*dT*d[5mC]*dT*dG*d[5mC]*eA*eG*eG*eA*eG) [compound 422147]
64

Reported % Inhibition of human Factor 7 mRNA levels, substance 422148 (antisense eG*eG*eA*eG*e[5mC]*d[5mC]*d[5mC]*dG*dA*dG*dT*dT*d[5mC]*dT*dG*e[5mC]*eA*eG*eG*eA) [compound 422148] : ____
57

---

System: human Factor 7 mRNA
Assay: Antisense inhibition of human Factor 7 mRNA in HepB3 cells, 50 nM antisense oligonucleotide, lipofectin
Type: cell-based
Settings: oligonucleotides targeted to nucleobases 14707 to 14732 of SEQ ID NO: 1 (Table 11)
Strand notation (5' to 3'): a small letter for the sugar, then the base; units joined by * are phosphorothioate-linked, units joined directly phosphodiester-linked; [ ] holds rarer units or linkages, { } end groups; capitals alone tell only the bases. e = 2'-O-(2-methoxyethyl) (MOE); [5mC] = 5-methylcytosine; d = 2'-deoxy (DNA)
Quick reference: % Inhibition (human Factor 7 mRNA levels) of the listed items.
Lab book: enter the figure in %, no units written.

>  <substance>
407642 (antisense e[5mC]*eA*eG*e[5mC]*eA*dG*d[5mC]*d[5mC]*dT*dG*dA*dG*dG*d[5mC]*d[5mC]*eA*eG*e[5mC]*eA*eG) [compound 407642]

>  <unit-annotation>
%

>  <reported-value>
63

$$$$
>  <substance>
422203 (antisense e[5mC]*eA*eG*d[5mC]*d[5mC]*dT*dG*dA*dG*dG*d[5mC]*d[5mC]*dA*dG*d[5mC]*dA*dG*eA*eT*e[5mC]) [compound 422203]

>  <unit-annotation>
%

>  <reported-value>
52

$$$$
>  <substance>
422205 (antisense eA*eG*e[5mC]*dA*dG*d[5mC]*d[5mC]*dT*dG*dA*dG*dG*d[5mC]*d[5mC]*dA*dG*d[5mC]*eA*eG*eA) [compound 422205]

>  <unit-annotation>
%

>  <reported-value>
63

$$$$
>  <substance>
422279 (antisense eA*eG*d[5mC]*d[5mC]*dT*dG*dA*dG*dG*d[5mC]*d[5mC]*dA*dG*d[5mC]*dA*eG*eA*eT*e[5mC]*eA) [compound 422279]

>  <unit-annotation>
%

>  <reported-value>
56

$$$$

Any idea what % Inhibition (human Factor 7 mRNA levels) came out for 422133 (antisense eA*eG*e[5mC]*eA*eG*d[5mC]*d[5mC]*dT*dG*dA*dG*dG*d[5mC]*d[5mC]*dA*eG*e[5mC]*eA*eG*eA) [compound 422133] on human Factor 7 mRNA?
65

// map 422277 (antisense e[5mC]*e[5mC]*dT*dG*dA*dG*dG*d[5mC]*d[5mC]*dA*dG*d[5mC]*dA*dG*dA*eT*e[5mC]*eA*e[5mC]*eG) [compound 422277] to recorded % Inhibition (human Factor 7 mRNA levels) (system: human Factor 7 mRNA)
56

Provide value of % Inhibition (human Factor 7 mRNA levels) for this record tested with human Factor 7 mRNA: 407641 (antisense e[5mC]*e[5mC]*eT*eG*eA*dG*dG*d[5mC]*d[5mC]*dA*dG*d[5mC]*dA*dG*dA*eT*e[5mC]*eA*e[5mC]*eG) [compound 407641]
68

What is its % Inhibition (human Factor 7 mRNA levels) for human Factor 7 mRNA? Entry: 422281 (antisense eG*e[5mC]*dA*dG*d[5mC]*d[5mC]*dT*dG*dA*dG*dG*d[5mC]*d[5mC]*dA*dG*e[5mC]*eA*eG*eA*eT) [compound 422281]
57

Quick check: % Inhibition (human Factor 7 mRNA levels) on human Factor 7 mRNA, item 422206 (antisense e[5mC]*eA*eG*d[5mC]*dA*dG*d[5mC]*d[5mC]*dT*dG*dA*dG*dG*d[5mC]*d[5mC]*dA*dG*e[5mC]*eA*eG) [compound 422206] ?
65

---

The entries below are paired with their reported percent inhibition of Factor 7.
System: human Factor 7 mRNA
Experiment: Dose-dependent antisense inhibition of human Factor 7 in HepB3 cells, lipofectin
Assay type: cell-based
Settings: Table 3, 12.5 nM, approximately 16 hours
Strand notation (5' to 3'): a small letter for the sugar, then the base; units joined by * are phosphorothioate-linked, units joined directly phosphodiester-linked; [ ] holds rarer units or linkages, { } end groups; capitals alone tell only the bases. e = 2'-O-(2-methoxyethyl) (MOE); [5mC] = 5-methylcytosine; d = 2'-deoxy (DNA)

Example entries begin here.
>  <substance>
407910 (antisense eA*eG*eT*e[5mC]*e[5mC]*dT*dT*dG*d[5mC]*dT*dG*d[5mC]*d[5mC]*dA*dT*e[5mC]*e[5mC]*eG*eA*eG) [compound 407910]

>  <percent inhibition of Factor 7>
69%

$$$$
>  <substance>
407641 (antisense e[5mC]*e[5mC]*eT*eG*eA*dG*dG*d[5mC]*d[5mC]*dA*dG*d[5mC]*dA*dG*dA*eT*e[5mC]*eA*e[5mC]*eG) [compound 407641]

>  <percent inhibition of Factor 7>
71%

$$$$

Now turn to the next substance.
Need percent inhibition of Factor 7 of 407643 (antisense e[5mC]*eA*e[5mC]*eA*e[5mC]*dA*dT*dG*dG*dA*dG*dT*d[5mC]*dA*dG*e[5mC]*eA*eT*e[5mC]*eG) [compound 407643] , thanks.
68%
